Target: 17β-HSD10 (Homo sapiens)
Construct: inferred from Ni-NTA purification with imidazole elution; made in house; host or cells: E. coli BL21 (DE3)
Sequence (Q99714 1-261): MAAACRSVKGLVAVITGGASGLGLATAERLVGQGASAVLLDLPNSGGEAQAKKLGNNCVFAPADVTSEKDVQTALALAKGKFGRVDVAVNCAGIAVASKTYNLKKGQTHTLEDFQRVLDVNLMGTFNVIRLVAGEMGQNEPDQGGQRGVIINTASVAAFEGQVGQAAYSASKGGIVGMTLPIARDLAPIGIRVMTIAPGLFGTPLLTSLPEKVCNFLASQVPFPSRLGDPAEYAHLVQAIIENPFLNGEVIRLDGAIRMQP
Test: Inhibition of 17β-estradiol to estrone transformation by purified recombinant 17β-HSD10 (NADH fluorescence)
Format: biochemical
Conditions: purified recombinant 17β-HSD10, 17β-estradiol as substrate; means ± SEM (n = 4)
Experimental: As standards, we used the known inhibitor AG18051 as the positive control and the published steroidal compounds,[18] namely, pregnenolone, testosterone, dihydrotestosterone, androsterone, epiandrosterone, and dehydroepiandrosterone. […] Steroid stock solutions (5 mM) were further diluted with DMSO to the working concentrations. […] The enzyme activity was determined fluorometrically at 37 °C in the activity assay buffer [100 mM potassium phosphate buffer (pH 8.0)]. […]
Mark fulfilled only for IC50 values smaller than 9 µM; exact matches and larger values are not fulfilled.

compound="C[C@@]12CCC[C@H]1[C@@H]1CC=C3C[C@@H](OC(=O)CCCCCC(=O)O)CC[C@]3(C)[C@H]1CC2 [Compound 24, Androst-5-en-3β-yl Hemipimelate]" classification=fulfilled
compound="CC[C@H]1CC[C@H]2[C@@H]3CC=C4C[C@@H](OC(=O)CCC(=O)O)CC[C@]4(C)[C@H]3CC[C@]12C [Compound 14, Pregn-5-en-3β-yl Hemisuccinate]" classification="not fulfilled"
compound="C[C@@]12CCC[C@H]1[C@@H]1CC=C3C[C@@H](OC(=O)CCC(=O)O)CC[C@]3(C)[C@H]1CC2 [Compound 21, Androst-5-en-3β-yl Hemisuccinate]" classification=fulfilled
compound="CC[C@H]1CC[C@H]2[C@@H]3CC=C4C[C@@H](OC(=O)CCCCC(=O)O)CC[C@]4(C)[C@H]3CC[C@]12C [Compound 16, Pregn-5-en-3β-yl Hemiadipate]" classification="not fulfilled"
compound="CC(=O)[C@H]1CC[C@H]2[C@@H]3CC=C4C[C@@H](OC(=O)CCCC(=O)O)CC[C@]4(C)[C@H]3CC[C@]12C [Compound 10, 20-Oxo-pregn-5-en-3β-yl Hemiglutarate]" classification="not fulfilled"

###

Target: 17β-HSD10 overexpressed in HEK-293 (HEK-293-HSD10 cell line) (Homo sapiens)
Sequence (Q99714 1-261): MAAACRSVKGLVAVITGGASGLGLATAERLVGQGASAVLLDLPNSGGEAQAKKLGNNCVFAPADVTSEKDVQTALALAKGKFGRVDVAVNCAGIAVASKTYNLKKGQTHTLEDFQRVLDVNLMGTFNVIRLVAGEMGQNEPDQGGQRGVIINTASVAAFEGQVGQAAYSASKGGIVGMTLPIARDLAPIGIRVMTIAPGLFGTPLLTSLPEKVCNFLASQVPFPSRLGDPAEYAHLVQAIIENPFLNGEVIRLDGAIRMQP
Experiment: Fluorogenic (−)–CHANA assay for cellular inhibition of 17β-HSD10
Details: HEK-293-HSD10, (−)–CHANA probe; exact value not determinable; read-out: IC50 at the cellular level
pIC50: −log10 of the molar value.
QUANTITY NAME: pIC50

compound="C[C@@]12CCC[C@H]1[C@@H]1CC=C3C[C@@H](OC(=O)CCCCC(=O)O)CC[C@]3(C)[C@H]1CC2 [Compound 23, Androst-5-en-3β-yl Hemiadipate]" result="< 4.70"

###

A collection of compounds and their measured inhibition at 10 µM
Biological target: 17β-HSD10 (Homo sapiens)
Construct: inferred from Ni-NTA purification with imidazole elution; made in house; host or cells: E. coli BL21 (DE3)
Sequence (Q99714 1-261): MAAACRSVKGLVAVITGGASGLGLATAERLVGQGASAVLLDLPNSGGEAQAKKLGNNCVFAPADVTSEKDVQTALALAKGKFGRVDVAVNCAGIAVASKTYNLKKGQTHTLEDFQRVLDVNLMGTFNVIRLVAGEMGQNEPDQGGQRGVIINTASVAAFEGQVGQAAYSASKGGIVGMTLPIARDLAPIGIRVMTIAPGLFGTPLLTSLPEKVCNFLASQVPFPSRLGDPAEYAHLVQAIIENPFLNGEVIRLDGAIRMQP
Assay: Inhibition of 17β-estradiol to estrone transformation by purified recombinant 17β-HSD10 (NADH fluorescence)
Type: biochemical
Settings: read-out: Inhibition at 10 µM (%) (this study)
QUANTITY NAME: inhibition at 10 µM (%)

compound=C[C@]12CC[C@@H](O)C[C@@H]1CC[C@@H]1[C@@H]2CC[C@]2(C)C(=O)CC[C@@H]12 target_desc="17β-HSD10 (Homo sapiens)" unit_text=% numeric_value=0
compound="C[C@]12CC[C@H](O)CC1=CC[C@@H]1[C@@H]2CC[C@]2(C)C(=O)CC[C@@H]12 [dehydroepiandrosterone]" target_desc="17β-HSD10 (Homo sapiens)" unit_text=% numeric_value=6.6
compound="C[C@]12CCC(=O)C[C@@H]1CC[C@@H]1[C@@H]2CC[C@]2(C)[C@@H](O)CC[C@@H]12 [dihydrotestosterone]" target_desc="17β-HSD10 (Homo sapiens)" unit_text=% numeric_value=6.3
compound="C[C@]12CC[C@H](O)C[C@@H]1CC[C@@H]1[C@@H]2CC[C@]2(C)C(=O)CC[C@@H]12 [epi-androsterone, epiandrosterone]" target_desc="17β-HSD10 (Homo sapiens)" unit_text=% numeric_value=7
compound=C[C@]12CC[C@H]3[C@@H](CCC4=CC(=O)CC[C@@]43C)[C@@H]1CC[C@@H]2O target_desc="17β-HSD10 (Homo sapiens)" unit_text=% numeric_value=15.7

###

molecular target: 17β-HSD10 (Homo sapiens, UniProt Q99714); construct: inferred from Ni-NTA purification with imidazole elution; made in house; host or cells: E. coli BL21 (DE3); test: Inhibition of 17β-estradiol to estrone transformation by purified recombinant 17β-HSD10 (NADH fluorescence); format: biochemical; conditions: read-out: Inhibition at 1 µM (%) (this study)
Classification field: enter Met for inhibition at 1 µM values not below 3%, Not met for values below it.

compound="C[C@]12CC[C@H](O)C[C@@H]1CC[C@@H]1[C@@H]2CC[C@]2(C)C(=O)CC[C@@H]12 [epi-androsterone, epiandrosterone]" classification="Not met"
compound="C[C@]12CC[C@H](O)CC1=CC[C@@H]1[C@@H]2CC[C@]2(C)C(=O)CC[C@@H]12 [dehydroepiandrosterone]" classification=Met
compound="C[C@]12CC[C@H]3[C@@H](CCC4=CC(=O)CC[C@@]43C)[C@@H]1CC[C@@H]2O [testosterone]" classification=Met
compound="C[C@]12CCC(=O)C[C@@H]1CC[C@@H]1[C@@H]2CC[C@]2(C)[C@@H](O)CC[C@@H]12 [dihydrotestosterone]" classification="Not met"
compound="C[C@]12CC[C@@H](O)C[C@@H]1CC[C@@H]1[C@@H]2CC[C@]2(C)C(=O)CC[C@@H]12 [androsterone]" classification=Met
